Documented Ki across a set of molecules
# Target of assay: FKBP51 (Homo sapiens)
# Sequence (Q13451 42-130 limits assumed): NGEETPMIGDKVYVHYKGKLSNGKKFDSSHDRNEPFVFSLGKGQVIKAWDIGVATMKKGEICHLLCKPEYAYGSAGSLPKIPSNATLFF
# Assay details: Fluorescence polarization binding assay, FK1-domain of FKBP51WT with tracer F4
# Parameters: Purified FK1-domains of FKBP51WT (4.5 nM) with F4 (3 nM), FKBP52WT (400 nM) with F2 (20 nM); made in house; host or cells: E. coli BL21(DE3)pLysS
# Cond: compounds B01-C25; read-out: Affinity(Ki) for FKBP51

Example entries begin here.
# Compound structure, Ki
measured = [
    ("COc1cc([C@@H](C(=O)N2CCCC[C@H]2C(=O)NC2(C(N)=O)CC2)C2CCCCC2)cc(OC)c1OC", "10 to 50 µM"),
    ("COc1cc([C@@H](C(=O)N2CCCC[C@H]2C(=O)NCCC(N)=O)C2CCCCC2)cc(OC)c1OC", "1 to 10 µM"),
]

Please examine the following record next.
**Q:** What does the record list as Ki for COc1cc([C@@H](C(=O)N2CCCC[C@H]2C(=O)O)C2CCCCC2)cc(OC)c1OC ?
**A:** 10 to 50 µM
